system: DeltatarO mutant; assay: S. aureus survival, RN4220 and DeltatarO strains – OD600, teichoic acid synthesis inhibitors, primary screen (AID 463173); settings: S. aureus RN4220 wild type/DeltatarO growth, OD600, 18 h, active compounds read low, screened at 18.75 µg/mL (by protocol)
Hit rate of the full screen: of about 52,000 compounds, about 4,300 (8.3%) were called active. Many of the other results were omitted from the sample, so actives are more common in it than they were.
READOUT NAME: survival (%)
API: value field is a number in %; no unit string.

Consider the reported survival for these compounds:
-- ask I would be grateful if you could share the reported survival for O=C(NCc1ccc2c(c1)CCN2C(=O)c1ccccc1)Nc1cccc(C(F)(F)F)c1 .
-- reply 123

-- ask I would be grateful if you could share the reported survival for Cc1cccc(C(=O)N2CCc3cc(CNC(=O)c4cc5ccccc5[nH]4)ccc32)c1 .
-- reply 81

-- ask I would be grateful if you could share the reported survival for CCCCN(CC)C(=O)c1ccc2c(c1)NC(=O)c1ccccc1S2 .
-- reply 104

Further cases:
-- ask I would be grateful if you could share the reported survival for Cc1cccc(NC(=O)CN2C(=O)CSc3ccc(S(=O)(=O)N4CCCC4)cc32)c1C .
-- reply 92

-- ask I would be grateful if you could share the reported survival for CCC(=O)N1CCc2cc(Br)cc(S(=O)(=O)CCC(=O)NCCc3ccc(Cl)cc3)c21 .
-- reply 70

-- ask I would be grateful if you could share the reported survival for COc1ccc2cc(C(=O)NCc3ccc4c(c3)CCN4C(=O)c3ccccc3)[nH]c2c1 .
-- reply -1

-- ask I would be grateful if you could share the reported survival for COc1ccc(Br)c2c1-c1nc(NC(=O)c3cccc(C)c3)sc1C2 .
-- reply 44

-- ask I would be grateful if you could share the reported survival for COc1ccc(OC)c(NC(=O)C2=C(C)C(=O)OC23CCCCCC3)c1 .
-- reply 131

-- ask I would be grateful if you could share the reported survival for CCC(=O)N1CCc2cc(Br)cc(S(=O)(=O)CCC(=O)Nc3ccccc3C)c21 .
-- reply 87

-- ask I would be grateful if you could share the reported survival for COc1ccc(OC)c(NC(=O)C2=C(C)C(=O)OC23CCN(C(C)C)CC3)c1 .
-- reply 32

-- ask I would be grateful if you could share the reported survival for O=C(NCc1ccc2c(c1)CCN2C(=O)c1ccc(F)cc1)c1cc2ccccc2[nH]1 .
-- reply 97

-- ask I would be grateful if you could share the reported survival for COc1ccc(CCC(=O)NCc2ccc3c(c2)CCN3C(=O)c2cccc(C)c2)cc1 .
-- reply 76

-- ask I would be grateful if you could share the reported survival for CCOC(=O)c1cccc(NC(=O)NCc2ccc3c(c2)CCN3C(=O)c2ccccc2)c1 .
-- reply 116

-- ask I would be grateful if you could share the reported survival for Cc1ccc(NC(=O)c2cccc3c(=O)c4c([nH]c23)CCCC4)c(C)c1 .
-- reply 69

-- ask I would be grateful if you could share the reported survival for COc1ccc(C(=O)NCCSc2ccccn2)cc1 .
-- reply 78

-- ask I would be grateful if you could share the reported survival for COc1ccc(C(=O)Nc2nc3c(s2)Cc2c(Br)ccc(OC)c2-3)cc1OC .
-- reply 36

-- ask I would be grateful if you could share the reported survival for COc1ccc(CCNC(=O)CCS(=O)(=O)c2cc(Br)cc3c2N(C(C)=O)CC3)cc1OC .
-- reply 53

-- ask I would be grateful if you could share the reported survival for CCOC(=O)C1CCN(C(c2cccc(F)c2)c2c(O)cc(C)n(CCOC)c2=O)CC1 (stereo unspecified) .
-- reply 135

-- ask I would be grateful if you could share the reported survival for COc1ccc(Br)c2c1-c1nc(NC(=O)c3ccc(F)cc3)sc1C2 .
-- reply 67

-- ask I would be grateful if you could share the reported survival for COc1ccc(Br)c2c1-c1nc(NC(=O)c3ccccc3SC)sc1C2 .
-- reply 105

-- ask I would be grateful if you could share the reported survival for COc1ccc(Br)c2c1-c1nc(NC(=O)c3ccccc3F)sc1C2 .
-- reply 69
